Catalogue of LD50 readings, one per entry.
- test: rat acute oral toxicity
- conditionInfo: in vivo
Give the number; mg/kg is assumed, so skip it.

Solved entries:
CCCC=O : 2490
CN(C)c1ccccc1 : 951
CC(=O)c1ccccc1 : 858
C=CCOC(C)=O : 130
C=CCCl : 284
C=CC(=O)OCC1CO1 (configuration not stated) : 150
COc1ccc(C(CN)C2(O)CCCCC2)cc1 (configuration not stated) : 200
CNC1=Nc2ccc(Cl)cc2C(c2ccccc2)=[N+]([O-])C1 : 392

Record request: LD50 value, item CCC(C)(C)OC
1600

Record request: LD50 value, item CC(C)N(C(=O)COc1nnc(C(F)(F)F)s1)c1ccc(F)cc1
480

Record request: LD50 value, item O=C1C[C@@H]2OCC=C3CN4CC[C@]56c7ccccc7N1[C@H]5[C@H]2[C@H]3C[C@H]46
3.58

Record request: LD50 value, item CC(C)(C#N)C(C)(C)C#N
27

Record request: LD50 value, item CC(C)CO
2460

Record request: LD50 value, item c1ccc(Nc2ccccc2)cc1
1120

Record request: LD50 value, item CCN(CC)c1nc(C)cc(OP(=S)(OC)OC)n1
1250

Record request: LD50 value, item Cc1ccncc1
440

Record request: LD50 value, item Nc1ncnc2c1ncn2C1CC(O)C(COP(=O)(O)OP(=O)(O)OP(=O)(O)O)O1 (configuration not stated)
6770

Record request: LD50 value, item CCNc1nc(Cl)nc(NC(C)C)n1
1870

Record request: LD50 value, item Cc1ccccc1OP(=O)(Oc1ccccc1C)Oc1ccccc1C
1160

Record request: LD50 value, item NCC1CCCC(CN)C1 (configuration not stated)
880

----------
- test: GHS categories as the set defines them, by LD50: 1 up to 5, 2 up to 50, 3 up to 300, 4 up to 2000, 5 above 2000 mg/kg
- conditionInfo: rat; in vivo; po
Catalogue of GHS category readings, one per entry.
No unit in the answer, please; the number alone is enough.

Cc1ccc2[nH]c3cc4c(=O)c5cc(C)ccc5[nH]c4cc3c(=O)c2c1 : 5
CC[N+](CC)(CC)CCOc1cccc(OCC[N+](CC)(CC)CC)c1OCC[N+](CC)(CC)CC : 4
CN1CC(c2ccno2)CC2c3cccc4[nH]cc(c34)CC21 (stereo unspecified) : 4

Record request: GHS category value, item c1ccc(Nc2ccc(NC3CCCCC3)cc2)cc1
5

Record request: GHS category value, item CN1C2CCC1CC(OS(C)(=O)=O)C2 (stereo unspecified)
4

Record request: GHS category value, item N[C@@H](C(=O)N[C@@H]1C(=O)N2C(C(=O)O)=C(Cl)CS[C@H]12)c1ccccc1
5

Record request: GHS category value, item CCCCCCCCC(=O)OCC(CC)(COC(=O)CCCCCCCC)COC(=O)CCCCCCCC
5

Record request: GHS category value, item COC(=O)c1cc(F)ccc1[N+](=O)[O-]
5

Record request: GHS category value, item CCOP(Oc1c(C)cc(C(C)(C)C)cc1C(C)(C)C)Oc1c(C)cc(C(C)(C)C)cc1C(C)(C)C
5

Record request: GHS category value, item C[C@H]1CO[C@@](Cn2cncn2)(c2cc3cc(Cl)cc(Cl)c3o2)O1
4

Record request: GHS category value, item Cc1ccc2ncc(C(=O)NC3CCCC3)c(=O)n2c1
3
